The reported numbers originate from PubChem BioAssay AID1963981.

Tested on: 354836-022-R-J1-PDC multicell spheroid viability;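 note: spheroids exposed to agents for seven days before the viability read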
Test description: Anticancer human tumor 354836-022-R-J1-PDC patient-derived head and neck squamous cell carcinoma cell line growth inhibition [PI3K]
Settings: second compound 1 µM; first compound 0.316 µM; hits give low values
Assign viability, T/C to each entry below.
One number for each entry, in %.

Consider the worked cases shown below.
{"columns": ["Compound", "Target of assay", "U", "viability, T/C"],
 "data": [
  ["CNC(=O)c1ccc(N2C(=S)N(c3ccc(C#N)c(C(F)(F)F)c3)C(=O)C2(C)C)cc1F + CC(Nc1ncnc2nc[nH]c12)c1cc2cccc(Cl)c2c(=O)n1-c1ccccc1", "354836-022-R-J1-PDC multicell spheroid viability", "%", 95.9],
  ["CCCS(=O)(=O)Nc1ccc(F)c(C(=O)c2c[nH]c3ncc(-c4ccc(Cl)cc4)cc23)c1F + COc1c(OCCCN2CCOCC2)ccc2c3n(c(=NC(=O)c4cnc(N)nc4)nc12)CCN3", "354836-022-R-J1-PDC multicell spheroid viability", "%", 2.26],
  ["CC1(C)CCC(Nc2ncc(C(F)(F)F)c(-c3c[nH]c4c(P(C)(C)=O)c(C#N)ccc34)n2)CN1 (stereo not given) + Cc1nc(NC(=O)N2CCCC2C(N)=O)sc1-c1ccnc(C(C)(C)C(F)(F)F)c1", "354836-022-R-J1-PDC multicell spheroid viability", "%", 14.6]
]}

// batch mode: one viability, T/C value per listed entry
1. CC1(C)CCC(CN2CCN(c3ccc(C(=O)NS(=O)(=O)c4ccc(NCC5CCOCC5)c([N+](=O)[O-])c4)c(Oc4cnc5[nH]ccc5c4)c3)CC2)=C(c2ccc(Cl)cc2)C1 + CC(Nc1ccc2c(c1)OCCn1cc(N3C(=O)OCC3C(F)F)nc1-2)C(N)=O
2. CCN1CCN(Cc2ccc(Nc3ncc(F)c(-c4cc(F)c5nc(C)n(C(C)C)c5c4)n3)nc2)CC1 + COc1c(OCCCN2CCOCC2)ccc2c3n(c(=NC(=O)c4cnc(N)nc4)nc12)CCN3
3. C=CC(=O)N1CCN(c2nc(=O)n(-c3c(C)ccnc3C(C)C)c3nc(-c4c(O)cccc4F)c(F)cc23)C(C)C1 (stereo not given) + CC(Nc1ncnc2nc[nH]c12)c1cc2cccc(Cl)c2c(=O)n1-c1ccccc1
4. CC1(C)CCC(CN2CCN(c3ccc(C(=O)NS(=O)(=O)c4ccc(NCC5CCOCC5)c([N+](=O)[O-])c4)c(Oc4cnc5[nH]ccc5c4)c3)CC2)=C(c2ccc(Cl)cc2)C1 + CC(Nc1ncnc2nc[nH]c12)c1cc2cccc(Cl)c2c(=O)n1-c1ccccc1
5. Cn1nccc1Nc1nccc(-c2ccn(C(CO)c3ccc(Cl)c(F)c3)c(=O)c2)n1 (stereo not given) + CC(Nc1ncnc2nc[nH]c12)c1cc2cccc(Cl)c2c(=O)n1-c1ccccc1
6. C=CC(=O)N1CCN(c2nc(=O)n(-c3c(C)ccnc3C(C)C)c3nc(-c4c(O)cccc4F)c(F)cc23)C(C)C1 (stereo not given) + CC(Nc1ccc2c(c1)OCCn1cc(N3C(=O)OCC3C(F)F)nc1-2)C(N)=O

## Result
1: 50.2; 2: 1.38; 3: 108; 4: 93.4; 5: 111; 6: 65.1

## Task // fetch viability, T/C; item: CC1(C)CCC(Nc2ncc(C(F)(F)F)c(-c3c[nH]c4c(P(C)(C)=O)c(C#N)ccc34)n2)CN1 (stereo not given) + COc1c(OCCCN2CCOCC2)ccc2c3n(c(=NC(=O)c4cnc(N)nc4)nc12)CCN3 ; system: 354836-022-R-J1-PDC multicell spheroid viability;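 note: spheroids exposed to agents for seven days before the viability read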
## Result 1.58
